molecular target: Epidermal growth factor receptor (Homo sapiens, UniProt P00533, C797S/EX19DEL/T790M); test: Inhibition of EGFR Del19/T790M/C797S triple mutant (unknown origin)
Sequence (P00533 whole entry, looked up, stated change not applied): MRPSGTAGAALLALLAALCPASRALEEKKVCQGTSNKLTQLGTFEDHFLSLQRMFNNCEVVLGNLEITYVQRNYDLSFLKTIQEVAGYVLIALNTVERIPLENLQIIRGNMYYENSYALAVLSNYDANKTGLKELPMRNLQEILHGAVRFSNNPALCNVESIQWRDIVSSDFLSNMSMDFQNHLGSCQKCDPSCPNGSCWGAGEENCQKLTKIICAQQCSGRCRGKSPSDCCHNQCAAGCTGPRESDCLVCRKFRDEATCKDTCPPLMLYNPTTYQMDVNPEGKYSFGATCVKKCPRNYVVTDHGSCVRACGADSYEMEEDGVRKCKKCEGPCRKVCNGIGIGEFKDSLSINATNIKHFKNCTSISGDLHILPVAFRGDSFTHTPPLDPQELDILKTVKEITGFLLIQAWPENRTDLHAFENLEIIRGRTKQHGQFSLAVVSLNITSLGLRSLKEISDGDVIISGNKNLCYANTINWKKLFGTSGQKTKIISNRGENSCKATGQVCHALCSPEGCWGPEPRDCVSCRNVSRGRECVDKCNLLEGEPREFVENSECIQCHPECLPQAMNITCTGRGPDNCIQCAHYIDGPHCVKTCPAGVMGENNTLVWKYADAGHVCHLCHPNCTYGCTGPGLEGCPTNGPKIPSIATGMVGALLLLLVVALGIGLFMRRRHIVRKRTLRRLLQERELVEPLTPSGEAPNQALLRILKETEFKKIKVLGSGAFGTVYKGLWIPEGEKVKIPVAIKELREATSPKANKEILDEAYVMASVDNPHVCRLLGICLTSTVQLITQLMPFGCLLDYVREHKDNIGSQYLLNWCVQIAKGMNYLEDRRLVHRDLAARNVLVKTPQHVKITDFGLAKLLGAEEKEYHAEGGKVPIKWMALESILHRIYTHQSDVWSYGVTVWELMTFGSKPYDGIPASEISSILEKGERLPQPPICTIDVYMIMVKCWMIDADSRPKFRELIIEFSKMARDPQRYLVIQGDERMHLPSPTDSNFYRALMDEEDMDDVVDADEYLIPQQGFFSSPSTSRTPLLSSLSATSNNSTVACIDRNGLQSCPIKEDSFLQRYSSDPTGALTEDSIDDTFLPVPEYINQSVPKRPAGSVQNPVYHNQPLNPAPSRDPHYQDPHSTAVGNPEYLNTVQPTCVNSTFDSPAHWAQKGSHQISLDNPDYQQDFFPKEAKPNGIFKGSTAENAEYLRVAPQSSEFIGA
EXPERIMENTAL_READOUT: IC50
I'd appreciate it if you wrote the number followed by its unit.

Exercise: Any idea what its IC50 is? The molecule is "COc1cc(N2CCC(N3CCN(C)CC3)CC2)ccc1Nc1ncc(Cl)c(Nc2ccccc2NS(C)(=O)=O)n1"
Solution: 5 nM

====

assay: Antiproliferative activity against mouse Ba/F3 EGFR-T790M/C797S/L858R cells assessed as reduction in cell growth incubated for 72 hrs by CCK-8 assay; format: functional, cell-based
EXPERIMENTAL_READOUT: IC50

Use these answered entries as a reference point.
CCC(=O)N[C@H]1CC[C@@H](N2C(=O)N(c3ccccc3Cl)Cc3cnc(Nc4ccc(N5CCN(C)CC5)c(C)c4)nc32)CC1	320 nM
C=CC(=O)Nc1cc(Nc2nccc(-c3cn(C)c4ccccc34)n2)c(OC)cc1N(C)CCN(C)C	4140 nM

# ---- query molecule ----
Exercise: IC50 lookup needed for "CN1CCN(c2ccc(Nc3ncc(Cl)c(Nc4ccccc4P(C)(C)=O)n3)cc2Br)CC1" , thanks.
Solution: 90 nM
